tested on: HEK293 cells

- molecule: "CO/C1=C\\C(C)=C\\[C@@H](C)[C@@H](O)[C@@H](C)C/C(C)=C/C=C/[C@H](OC)[C@@H]([C@@H](C)[C@@H](O)[C@H](C)[C@@]2(O)C[C@@H](O)[C@H](C)[C@@H](C(C)C)O2)OC1=O [Baf A1, bafilomycin A1, reference compound]"
  CC50 / nM: 320

---

This listing pairs molecules with measured log10(CC50).
experiment: in vitro; details: human
property name: log10(CC50) (log10 of the value in µM)

- molecule: "C#CCOc1c2c(c(-c3ccc4c(c3)OCO4)c3cc(OC)c(OC)cc13)C(=O)OC2 [Compound 2d]"
  log10(CC50): 0.31
- molecule: "CCOc1c2c(c(-c3ccc4c(c3)OCO4)c3cc(OC)c(OC)cc13)C(=O)OC2 [Compound 2c]"
  log10(CC50): 0.38
- molecule: "COc1cc2c(O)c3c(c(-c4ccc5c(c4)OCO5)c2cc1OC)C(=O)N(/N=C/c1ccc(Cl)cc1)C3 [Compound 3d]"
  log10(CC50): 1.45
- molecule: "COc1cc2c(OC)c3c(c(-c4ccc5c(c4)OCO5)c2cc1OC)C(=O)OC3 [Compound 2b]"
  log10(CC50): 0.76
- molecule: "COc1cc2c(O)c3c(c(-c4ccc5c(c4)OCO5)c2cc1OC)C(=O)N(N)C3 [Compound 3a]"
  log10(CC50): 1.69
- molecule: "COc1cc2c(O)c3c(c(-c4ccc5c(c4)OCO5)c2cc1OC)C(=O)N(/N=C/c1cccnc1)C3 [Compound 3c]"
  log10(CC50): 1.70
- molecule: "COc1cc2c(OCCCC#N)c3c(c(-c4ccc5c(c4)OCO5)c2cc1OC)C(=O)OC3 [Compound 2f]"
  log10(CC50): 0.52

---

experiment: Cytotoxicity (MTT), A549 cells; settings: human
Listed here are molecules together with their documented CC50 at 72 h.
property name: CC50 at 72 h

- smi: "CCOC(=O)CN1CCN(CCCOc2c3c(c(-c4ccc5c(c4)OCO5)c4cc(OC)c(OC)cc24)C(=O)OC3)CC1"
  readout value: "> 100 µM"
- smi: "COc1cc2c(OC)c3c(c(-c4ccc5c(c4)OCO5)c2cc1OC)C(=O)OC3"
  readout value: "> 100 µM"
- smi: "COc1cc2c(OCCCN3CCOCC3)c3c(c(-c4ccc5c(c4)OCO5)c2cc1OC)C(=O)OC3"
  readout value: "> 100 µM"
- smi: "C#CCCCOc1c2c(c(-c3ccc4c(c3)OCO4)c3cc(OC)c(OC)cc13)C(=O)OC2"
  readout value: "> 100 µM"
